Below, each of the compounds is paired with its reported IC50 value.
# Test system: rat hepatoma line McA-RH7777
# assay_name: WST-8 cell viability assay, single agent in vitro toxicity
# Assay type: cell-based
# details: 72 hours of incubation, media containing 0.5% DMSO, read-out: IC50 Values of Each Drug per HCC Cell Line
assay_readout: IC50 (µM)

                                   compound  assay_readout  unit_name  value_observed
0  COc1cccc2c1C(=O)c1c(O)c3c(c(O)c1C2=O)C[C@@](O)(C(=O)CO)C[C@@H]3O[C@H]1C[C@H](N)[C@H](O)[C@H](C)O1 [Doxorubicin]           IC50         µM            0.48
1  CNC(=O)c1cc(Oc2ccc(NC(=O)Nc3ccc(Cl)c(C(F)(F)F)c3)cc2)ccn1 [Sorafenib]           IC50         µM            6.88
